Tested on: Staphylococcus aureus ATCC 65389
Assay: MIC, two-fold dilution method, Staphylococcus aureus ATCC 65389
Format: cell-based
Conditions: Muller Hinton Broth, 10^6 CFU per ml, 37° C., 18 to 20 hours

compound	unitDescriptor	Antibacterial Activity (MIC)
C=CC[n+]1ccc(SCC2=C(C(=O)[O-])N3C(=O)C(NC(=O)/C(=N\OC(C)(C)C(=O)O)c4csc(N)n4)[C@H]3SC2)c2cc(F)c(N3CCNCC3C)cc21 (some centres unmarked) [Compound I-64]	µg/mL	3.13
C#CCO/N=C(\C(=O)NC1C(=O)N2C(C(=O)[O-])=C(CSc3cc[n+](CC=C)c4cc(N5CCNCC5C)c(F)cc34)CS[C@H]12)c1csc(N)n1 (some centres unmarked) [Compound I-52]	µg/mL	3.13
CC[n+]1ccc(SCC2=C(C(=O)[O-])N3C(=O)C(NC(=O)/C(=N\OC(C)(C)C(=O)O)c4csc(N)n4)[C@H]3SC2)c2cc(F)c(-n3ccnc3)cc21 (some centres unmarked) [Compound I-65]	µg/mL	1.56
CO/N=C(\C(=O)NC1C(=O)N2C(C(=O)[O-])=C(CSc3cc[n+](C4CC4)c4cc(N5CCNCC5C)c(F)cc34)CS[C@H]12)c1csc(N)n1 (some centres unmarked) [Compound I-8]	µg/mL	0.39
CC[n+]1ccc(SCC2=C(C(=O)[O-])N3C(=O)C(NC(=O)/C(=N\OC)c4csc(N)n4)[C@H]3SC2)c2cc(F)c(N3CCNCC3C)cc21 (some centres unmarked) [Compound I-12]	µg/mL	0.1
